biological target: Estrogen receptor (Homo sapiens); assay: Antagonist activity at ERalpha (unknown origin) expressed in HEK293T cells assessed as inhibition of 17beta-estradiol stimulated transcriptional activity after 24 hrs by dual luciferase reporter gene assay
Sequence (P03372 whole entry): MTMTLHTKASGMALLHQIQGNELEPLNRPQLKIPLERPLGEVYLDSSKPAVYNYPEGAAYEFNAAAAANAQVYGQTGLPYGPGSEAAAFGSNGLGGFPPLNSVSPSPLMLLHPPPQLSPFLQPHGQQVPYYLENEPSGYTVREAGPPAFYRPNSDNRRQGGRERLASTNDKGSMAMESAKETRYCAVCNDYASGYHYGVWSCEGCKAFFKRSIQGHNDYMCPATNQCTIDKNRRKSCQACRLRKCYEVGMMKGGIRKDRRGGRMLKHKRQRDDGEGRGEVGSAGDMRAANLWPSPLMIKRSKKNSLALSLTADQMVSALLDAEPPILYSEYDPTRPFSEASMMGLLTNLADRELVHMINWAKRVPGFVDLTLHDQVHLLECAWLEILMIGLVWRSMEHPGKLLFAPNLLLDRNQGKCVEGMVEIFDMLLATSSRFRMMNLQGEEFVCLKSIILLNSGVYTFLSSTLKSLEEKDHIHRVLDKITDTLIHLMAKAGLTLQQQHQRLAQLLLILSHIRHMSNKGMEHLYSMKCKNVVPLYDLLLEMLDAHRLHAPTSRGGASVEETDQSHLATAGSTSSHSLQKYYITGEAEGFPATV
Categorize each record by its IC50 using 0 (below 0.2 µM), 1 (0.2 µM to below 0.8 µM), 2 (0.8 µM or more)

Solved cases (2 shown):
Cc1cc(O)ccc1-c1c[se]cc1-c1ccc(OCCN2CCCCC2)cc1C	1
Cc1cc(O)ccc1-c1c[se]cc1-c1ccc(OCCN2CCCC2)cc1C	0

Q: Using the reported IC50, which band applies to Oc1ccc(-c2c[se]cc2-c2ccc(OCCN3CCCCC3)cc2)cc1 ?
Ans: 2

Q: Just checking, what class would you give Oc1ccc(-c2c[se]cc2-c2ccc(OCCN3CCCCC3)c(F)c2)cc1F here?
Ans: 0

Q: For this molecule, which bin applies? Cc1cc(O)ccc1-c1cc(-c2ccc(OCCN3CCCC3)cc2)c(-c2ccc(O)cc2C)[se]1
Ans: 0

Q: Dear colleague, I would appreciate it if you could identify the bin for Oc1ccc(-c2c[se]cc2-c2ccc(OCCN3CCCCC3)cc2Cl)c(Cl)c1 and reply at your convenience.
Ans: 1

Q: # bin lookup: classify Cc1cc(O)ccc1-c1ccc(-c2ccc(OCCN3CCCC3)cc2C)[se]1 by its IC50
Ans: 2

Q: Determine which band this molecule sits in: Oc1ccc(-c2ccc(-c3ccc(OCCN4CCCC4)cc3Cl)[se]2)c(Cl)c1
Ans: 1

Q: Form: Item = Cc1cc(-c2c[se]cc2-c2ccc(OCCN3CCCC3)c(C)c2)ccc1O ; Class = ?
Ans: 2

Q: Which bin, given its IC50, does Oc1ccc(-c2ccc(-c3ccc(OCCN4CCCC4)cc3)[se]2)cc1 occupy?
Ans: 2

Q: Pick a category. Item: Oc1ccc(-c2cc(-c3ccc(OCCN4CCCC4)cc3)c(-c3ccc(O)cc3)[se]2)cc1
Ans: 2

Q: Returns: class label. Input: Oc1ccc(-c2c[se]cc2-c2ccc(OCCN3CCCC3)cc2Cl)c(Cl)c1
Ans: 1

Q: Lab note: sort Cc1cc(O)ccc1-c1ccc(-c2ccc(OCCN3CCCCC3)cc2C)[se]1 into the matching IC50 band.
Ans: 0

* * *

Listed compounds paired with reported RBA
target: UniProt Q92731; assay: Binding affinity to human ERbeta LBD expressed in Escherichia coli BL21(DE3) after 2 hrs by fluorescence tracer coumestrol based competitive fluorometric binding assay relative to 17beta-estradiol

Cc1cc(O)ccc1-c1c[se]cc1-c1ccc(OCCN2CCCCC2)cc1C	10.2%

Q: Lab note: record RBA of Oc1ccc(-c2c[se]cc2-c2ccc(OCCN3CCCCC3)cc2Cl)c(Cl)c1 tested on UniProt Q92731.
Ans: 18.4%

Q: Report measured RBA on UniProt Q92731; entry: Cc1cc(-c2c[se]cc2-c2ccc(OCCN3CCCC3)c(C)c2)ccc1O
Ans: 5.92%

Q: Quote UniProt Q92731 RBA for entry Cc1cc(-c2c[se]cc2-c2ccc(OCCN3CCCCC3)c(C)c2)ccc1O .
Ans: < 0.1%

Q: Lab note: record RBA of Cc1cc(O)ccc1-c1ccc(-c2ccc(OCCN3CCCC3)cc2C)[se]1 tested on UniProt Q92731.
Ans: 0.58%

* * *

Recorded Ratio, one value per entry.
species: Homo sapiens; test: Ratio of relative binding affinity for human ERalpha LBD to relative binding affinity to human ERbeta LBD
Quick one: just the number, no unit, thanks!

// solved cases for Ratio follow
Oc1ccc(-c2c[se]cc2-c2ccc(OCCN3CCCC3)cc2)cc1	0.35
Oc1ccc(-c2cc(-c3ccc(OCCN4CCCC4)cc3)c(-c3ccc(O)cc3)[se]2)cc1	0.18
Cc1cc(-c2c[se]cc2-c2ccc(OCCN3CCCC3)c(C)c2)ccc1O	0.34
Cc1cc(O)ccc1-c1c[se]cc1-c1ccc(OCCN2CCCCC2)cc1C	0.05

Q: Name the recorded Ratio of the item Oc1ccc(-c2c[se]cc2-c2ccc(OCCN3CCCCC3)cc2Cl)c(Cl)c1 in your answer.
Ans: 0.29

Q: Identify Ratio associated with the compound Oc1ccc(-c2c[se]cc2-c2ccc(OCCN3CCCCC3)cc2)cc1
Ans: 3.3

* * *

biological target: Estrogen receptor beta (Homo sapiens, UniProt Q92731); experiment: Antagonist activity at ERbeta (unknown origin) expressed in HEK293T cells assessed as inhibition of 17beta-estradiol stimulated transcriptional activity after 24 hrs by dual luciferase reporter gene assay
Sequence (Q92731 whole entry): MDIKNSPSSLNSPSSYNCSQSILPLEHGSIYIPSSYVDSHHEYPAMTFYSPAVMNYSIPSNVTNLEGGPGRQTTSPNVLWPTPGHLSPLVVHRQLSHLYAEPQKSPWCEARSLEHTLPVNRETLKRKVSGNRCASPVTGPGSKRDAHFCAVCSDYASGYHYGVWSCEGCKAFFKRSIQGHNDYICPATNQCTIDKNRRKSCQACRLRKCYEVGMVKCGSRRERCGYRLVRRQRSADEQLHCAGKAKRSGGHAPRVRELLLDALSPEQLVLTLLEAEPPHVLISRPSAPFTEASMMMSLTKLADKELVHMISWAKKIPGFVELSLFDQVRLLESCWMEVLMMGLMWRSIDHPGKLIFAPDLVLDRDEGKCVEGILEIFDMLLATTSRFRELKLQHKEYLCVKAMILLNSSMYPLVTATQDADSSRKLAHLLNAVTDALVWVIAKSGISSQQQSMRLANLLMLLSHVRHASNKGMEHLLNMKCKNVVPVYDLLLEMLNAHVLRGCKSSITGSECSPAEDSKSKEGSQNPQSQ
Assay Endpoint: pIC50
Just so you know, pIC50 here is -log10 of the concentration in molar units; reply with that number alone.

Cc1cc(O)ccc1-c1c[se]cc1-c1ccc(OCCN2CCCC2)cc1C	7.37
Cc1cc(-c2c[se]cc2-c2ccc(OCCN3CCCC3)c(C)c2)ccc1O	8.30
Oc1ccc(-c2c[se]cc2-c2ccc(OCCN3CCCCC3)cc2)cc1	6.35
Oc1ccc(-c2ccc(-c3ccc(OCCN4CCCCC4)cc3F)[se]2)c(F)c1	5.71
Oc1ccc(-c2cc(-c3ccc(OCCN4CCCCC4)cc3)c(-c3ccc(O)cc3)[se]2)cc1	5.27
Cc1cc(O)ccc1-c1ccc(-c2ccc(OCCN3CCCCC3)cc2C)[se]1	5.91
Cc1cc(O)ccc1-c1cc(-c2ccc(OCCN3CCCC3)cc2)c(-c2ccc(O)cc2C)[se]1	7.80
Oc1ccc(-c2ccc(-c3ccc(OCCN4CCCC4)cc3Cl)[se]2)c(Cl)c1	6.52

Q: Indicate its recorded pIC50; the molecule in question is Cc1cc(O)ccc1-c1c[se]cc1-c1ccc(OCCN2CCCCC2)cc1C
Ans: 5.87

Q: Item Oc1ccc(-c2cc(-c3ccc(OCCN4CCCC4)cc3)c(-c3ccc(O)cc3)[se]2)cc1 : provide pIC50
Ans: 6.32

Q: Tell me measured pIC50 for Oc1ccc(-c2c[se]cc2-c2ccc(OCCN3CCCC3)cc2Cl)c(Cl)c1 please.
Ans: 5.94

Q: Supply pIC50 value. Item: Oc1ccc(-c2c[se]cc2-c2ccc(OCCN3CCCCC3)c(F)c2)cc1F
Ans: 6.27

Q: Given Cc1cc(-c2c[se]cc2-c2ccc(OCCN3CCCCC3)c(C)c2)ccc1O , respond with its pIC50.
Ans: 6.38

Q: Identify measured pIC50 associated with Oc1ccc(-c2ccc(-c3ccc(OCCN4CCCC4)cc3F)[se]2)c(F)c1
Ans: 5.95

Q: Entry Oc1ccc(-c2ccc(-c3ccc(OCCN4CCCC4)cc3)[se]2)cc1 needs its pIC50 filled in; supply it.
Ans: 5.90

Q: Entry Oc1ccc(-c2c[se]cc2-c2ccc(OCCN3CCCCC3)cc2Cl)c(Cl)c1 needs its pIC50 filled in; supply it.
Ans: 6.48

Q: Answer with the recorded pIC50 of Oc1ccc(-c2ccc(-c3ccc(OCCN4CCCCC4)cc3Cl)[se]2)c(Cl)c1 only.
Ans: 5.53
